Test Method Notes: Intrinsic clearance in mouse liver microsomes measured upto 40 mins by LC-MS/MS analysis
Provide the recorded microsomal CLint at 40 min for the entries that follow.
Report the figure in µL/min/mg without appending any unit label.

Recorded result, O=C(CN(Cc1ccc(C(=O)NO)cc1)C(=O)c1cccc2ccccc12)NCc1ccccc1 , microsomal CLint at 40 min: 87

Recorded result, Cc1ccc(C(=O)N(CC(=O)NC2CCCCC2)Cc2ccc(C(=O)NO)cc2)c(C)c1 , microsomal CLint at 40 min: 94

Recorded result, CC(C)c1ccc(NC(=O)CN(Cc2ccc(C(=O)NO)cc2)C(=O)Cc2ccccc2)cc1 , microsomal CLint at 40 min: 38

Recorded result, CC(C)c1ccc(C(=O)N(Cc2ccc(C(=O)NO)cc2)C(C)(C)C(=O)NC2CCCCC2)cc1 , microsomal CLint at 40 min: 30

Recorded result, CNC(=O)CN(Cc1ccc(C(=O)NO)cc1)C(=O)c1ccc(C(C)C)cc1 , microsomal CLint at 40 min: 6

Recorded result, Cc1ccc(C(=O)N(CC(=O)NCc2ccccc2)Cc2ccc(C(=O)NO)cc2)c(C)c1 , microsomal CLint at 40 min: 38
